Record form. Attribute: fold over rodent (blocking, laminin/FACS). Fill in for each entry.
Target: T1, human MCAM (melanoma cell adhesion molecule) expressed on transfected CHO cells (human, UniProt P43121 24-646)
T1 construct: also called hMCAM; CD146
T1 chain: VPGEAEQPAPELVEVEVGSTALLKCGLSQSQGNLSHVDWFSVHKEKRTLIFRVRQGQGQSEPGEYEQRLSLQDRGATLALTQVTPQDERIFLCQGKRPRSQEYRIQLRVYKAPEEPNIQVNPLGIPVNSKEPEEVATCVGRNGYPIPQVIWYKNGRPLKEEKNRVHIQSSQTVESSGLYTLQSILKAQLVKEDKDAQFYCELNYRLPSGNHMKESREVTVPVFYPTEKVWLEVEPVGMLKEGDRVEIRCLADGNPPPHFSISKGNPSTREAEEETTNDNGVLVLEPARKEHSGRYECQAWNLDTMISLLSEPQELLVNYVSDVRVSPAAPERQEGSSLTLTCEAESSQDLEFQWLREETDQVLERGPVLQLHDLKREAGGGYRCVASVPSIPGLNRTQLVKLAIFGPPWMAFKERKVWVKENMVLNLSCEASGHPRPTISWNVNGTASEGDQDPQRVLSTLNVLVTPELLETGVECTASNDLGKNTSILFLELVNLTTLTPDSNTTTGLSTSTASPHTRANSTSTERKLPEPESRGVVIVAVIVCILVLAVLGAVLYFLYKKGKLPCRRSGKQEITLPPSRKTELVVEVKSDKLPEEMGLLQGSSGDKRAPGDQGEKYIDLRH
Experiment: laminin/FACS on hMCAM CHO cells, competitor laminin 411; Expt#2; vs rodent 1749
Expressed in fold, but write only the number.

I am curious: what fold over rodent (blocking, laminin/FACS) value has been reported for mouse anti-human MCAM monoclonal antibody clone 1749.1.3 (antibody, V domains shown, mouse hybridoma antibody; also called rodent 1749; murine 1749.1.3 anti-MCAM antibody) VH: DVKLVESGGDLVKPGGSLKLSCAASGFTFSSYIMSWVRQTPEKRLEWVATISSGGSSTYYPDSVKGRFTISRDNAKNTLYLQMSSLKSEDTAMYYCTRDDDYDVKVFAYWGQGTLVTVSA VL: DIVMSQSPSSLAVSAGEKVTMNCKSSRSLLNSRIRKNYLAWYQQKPGQSPKLLIYWASTRESGVPDRFTGSGSGTDFTLTISSVQAEDLAVYYCKQSYNLLTFGAGTKLELK ?
1

I am curious: what fold over rodent (blocking, laminin/FACS) value has been reported for chimeric 1749 (antibody, V domains shown) VH: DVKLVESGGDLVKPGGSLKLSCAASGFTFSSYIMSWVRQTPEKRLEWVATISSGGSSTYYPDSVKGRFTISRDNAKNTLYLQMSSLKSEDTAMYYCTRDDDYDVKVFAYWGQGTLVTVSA VL: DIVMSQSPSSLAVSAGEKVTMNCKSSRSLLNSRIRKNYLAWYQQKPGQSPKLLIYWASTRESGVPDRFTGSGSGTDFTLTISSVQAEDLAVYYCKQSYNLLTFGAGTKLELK ?
1.4

I am curious: what fold over rodent (blocking, laminin/FACS) value has been reported for h1749VH1 + h1749VL2 (antibody, human IgG1, V domains shown) VH: EVQLVESGGGLVQPGGSLRLSCAASGFTFSSYIMSWVRQAPGKGLEWVATISSGGSSTYYPDSVKGRFTISRDNAKNSLYLQMNSLRAEDTAVYYCTRDDDYDVKVFAYWGQGTMVTVSS VL: DIVMTQSPDSLAVSLGERATINCKSSRSLLNSRIRKNYLAWYQQKPGQPPKLLIYWASTRESGVPDRFTGSGSGTDFTLTISSLQAEDVAVYYCKQSYNLLTFGQGTKVEIK ?
1.2

I am curious: what fold over rodent (blocking, laminin/FACS) value has been reported for h1749VH1 + h1749VL1 (antibody, human IgG1, V domains shown, also called humanized 1749 standard VH and VL) VH: EVQLVESGGGLVQPGGSLRLSCAASGFTFSSYIMSWVRQAPGKGLEWVATISSGGSSTYYPDSVKGRFTISRDNAKNSLYLQMNSLRAEDTAVYYCTRDDDYDVKVFAYWGQGTMVTVSS VL: DIVMTQSPDSLAVSLGERATINCKSSRSLLNSRIRKNYLAWYQQKPGQPPKLLIYWASTRESGVPDRFSGSGSGTDFTLTISSLQAEDVAVYYCKQSYNLLTFGQGTKVEIK ?
1.4
